Target: Glutathione S-transferase P (Homo sapiens)
Sequence (P09211 whole entry): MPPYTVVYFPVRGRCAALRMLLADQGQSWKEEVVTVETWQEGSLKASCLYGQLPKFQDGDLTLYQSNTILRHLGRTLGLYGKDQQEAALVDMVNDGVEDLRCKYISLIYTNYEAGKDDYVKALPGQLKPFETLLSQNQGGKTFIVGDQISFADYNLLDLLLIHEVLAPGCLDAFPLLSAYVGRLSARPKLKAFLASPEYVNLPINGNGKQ
Assay: Inhibitory concentration against GSTP1-1 over-expressed in MCF7wt cells
Assay type: cell-based
Collected IC50 values appear next to each entry.
State just the number; it will be interpreted in µM.

C/C=C/C(=O)OCC1=CCCCC1=O; 29.6

Note: attention shifts to another entry.
### Prompt Consider the compound shown here: C/C=C/OC(=O)CC1=CCCCCC1=O What is its recorded IC50?
### Response 10.8

Provenance of the data: ChEMBL document CHEMBL1141121
